- System: Staphylococcus aureus
- Method Summary: Antibacterial activity against Staphylococcus aureus ATCC 25923 by MTT assay
- Assay type: functional
Readout Name: MIC50 (µg/mL)

Some compounds with recorded MIC50:
response.value for `O=C1OCC(OCCOC(=O)c2ccc(Cl)cc2Cl)=C1c1ccccc1` (field: MIC50) = 18.2

response.value for `Cc1cccc(C(=O)OCCOC2=C(c3ccccc3)C(=O)OC2)c1` (field: MIC50) = 15.8

1 = O=C1OCC(OCCOC(=O)c2ccc(O)c(O)c2)=C1c1ccccc1
2 = O=C(Cc1cccc(Br)c1)OCCOC1=C(c2ccc(Cl)cc2)C(=O)OC1
Which item exceeds the other in MIC50, 1 or 2 ? # answer = label of selected item
1
(1: 19.9 µg/mL, 2: 13.6 µg/mL)
